These measurements were taken from patent US10138233B2.

Reported values of pEC50 for individual entries
# System under test: FSHR (Homo sapiens, UniProt P23945)
# Sequence (P23945 18-695): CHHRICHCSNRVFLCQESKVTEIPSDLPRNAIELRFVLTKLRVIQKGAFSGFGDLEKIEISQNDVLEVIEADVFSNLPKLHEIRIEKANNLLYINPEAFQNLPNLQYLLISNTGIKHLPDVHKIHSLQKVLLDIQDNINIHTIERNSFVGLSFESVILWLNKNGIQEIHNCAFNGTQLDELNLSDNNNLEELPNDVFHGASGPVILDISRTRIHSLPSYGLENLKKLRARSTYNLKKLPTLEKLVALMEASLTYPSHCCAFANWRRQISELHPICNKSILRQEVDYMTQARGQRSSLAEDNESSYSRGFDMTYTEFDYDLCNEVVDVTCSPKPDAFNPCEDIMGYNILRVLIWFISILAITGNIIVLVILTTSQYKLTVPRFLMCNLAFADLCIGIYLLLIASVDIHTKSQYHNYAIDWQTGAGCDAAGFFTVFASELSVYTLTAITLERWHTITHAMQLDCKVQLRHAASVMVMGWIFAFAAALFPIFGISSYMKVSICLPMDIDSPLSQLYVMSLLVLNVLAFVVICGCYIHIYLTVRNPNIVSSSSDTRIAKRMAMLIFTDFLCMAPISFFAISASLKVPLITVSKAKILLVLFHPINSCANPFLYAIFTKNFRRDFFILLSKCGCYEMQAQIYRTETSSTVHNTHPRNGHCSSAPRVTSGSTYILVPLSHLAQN
# Test protocol: EC50 of cyclic AMP production in CHO FSHR cells + EC20 FSH (Assay A)
# Condition set: CHO-FSHR-LUC cells, in presence of EC20 FSH, cAMP HTRF, 1 h 37° C.
pEC50: −log10 of the molar value.
Reported endpoint: pEC50

INSERT INTO results (smiles_data, reported_endpoint, meas_value) VALUES
  ('COc1cc2c(cc1OC(C)C)-n1c(-c3cccc(F)c3)nc(C(=O)N(C)C(C)(C)C)c1CC2', 'pEC50', '6.00 to 7.00'),
  ('COc1cc2c(cc1OC(C)C)-n1c(C3=CCOCC3)nc(C(=O)N3CCOCC3(C)C)c1CC2', 'pEC50', '6.00 to 7.00'),
  ('COc1cc2c(cc1OC(C)C)-n1c(-c3cccc4cn[nH]c34)nc(C(=O)N3CCOCC3(C)C)c1CC2', 'pEC50', '5.30 to 6.00'),
  ('CCCn1nccc1-c1nc(C(=O)N2CCOCC2(C)C)c2n1-c1cc(OC(C)C)c(OC)cc1CC2', 'pEC50', '6.00 to 7.00');

---

# System under test: FSHR (Homo sapiens)
# Test protocol: EC50 of cyclic AMP production in CHO FSHR cells + EC20 FSH (Assay A)
# Condition set: CHO-FSHR-LUC cells, in presence of EC20 FSH, cAMP HTRF, 1 h 37° C.
pEC50: −log10 of the molar value.
Reported endpoint: pEC50

INSERT INTO results (smiles_data, reported_endpoint, meas_value) VALUES
  ('COc1cc2c(cc1OC(C)C)-n1c(-c3cc(F)ccc3F)nc(C(=O)N3CCOCC3(C)C)c1CC2', 'pEC50', '6.00 to 7.00'),
  ('COc1cc2c(cc1OC(C)C)-n1c(-c3ccc(F)c(F)c3)nc(C(=O)N3CCOCC3(C)C)c1CC2', 'pEC50', '6.00 to 7.00'),
  ('COc1cc2c(cc1OC(C)C)-n1c(-c3ccc(F)s3)nc(C(=O)N3CCOCC3(C)C)c1CC2', 'pEC50', '> 7.00'),
  ('COc1cc2c(cc1OC(C)C)-n1c(-c3ccc(C)c(F)c3)nc(C(=O)N3CCOCC3(C)C)c1CC2', 'pEC50', '6.00 to 7.00'),
  ('COc1cc2c(cc1OC(C)C)-n1c(-c3ccn(C)c3)nc(C(=O)N(C)C(C)(C)C)c1CC2', 'pEC50', '6.00 to 7.00'),
  ('COc1ccc(-c2nc(C(=O)N3CCOCC3(C)C)c3n2-c2cc(OC(C)C)c(OC)cc2CC3)cc1Cl', 'pEC50', '< 5.30'),
  ('COc1cc2c(cc1-c1n[nH]c(=S)o1)-n1c(-c3cccs3)nc(C(=O)N(C)C(C)(C)C)c1CC2', 'pEC50', '> 7.00'),
  ('COc1cc2c(cc1CC(C)C)-n1c(-c3cccs3)nc(C(=O)N3CCCC34COC4)c1CC2', 'pEC50', '5.30 to 6.00'),
  ('COc1cc2c(cc1OC(C)C)-n1c(-c3cccs3)nc(C(=O)N3CCCN(C(=O)C4CCC4)CC3)c1CC2', 'pEC50', '> 7.00'),
  ('COc1cc2c(cc1CC(C)C)-n1c(-c3cn[nH]c3C)nc(C(=O)N3CCOCC3(C)C)c1CC2', 'pEC50', '5.30 to 6.00'),
  ('COc1cc2c(cc1CC(C)C)-n1c(-c3ccsc3)nc(C(=O)N(C)C(C)(C)C)c1CC2', 'pEC50', '6.00 to 7.00'),
  ('COc1cc2c(cc1CC(C)C)-n1c(-c3cccn3C(=O)OC(C)(C)C)nc(C(=O)N3CCOCC3(C)C)c1CC2', 'pEC50', '5.30 to 6.00'),
  ('COc1cc2c(cc1CC(C)C)-n1c(-c3ccc(F)s3)nc(C(=O)N(C)C(C)(C)C)c1CC2', 'pEC50', '> 7.00'),
  ('CCn1nccc1-c1nc(C(=O)N2CCOCC2(C)C)c2n1-c1cc(OC(C)C)c(OC)cc1CC2', 'pEC50', '6.00 to 7.00'),
  ('COc1ccc(-c2nc(C(=O)N3CCOCC3(C)C)c3n2-c2cc(OC(C)C)c(OC)cc2CC3)cc1C', 'pEC50', '5.30 to 6.00');

---

# System under test: FSHR (Homo sapiens, UniProt P23945)
# Test protocol: EC50 of cyclic AMP production in CHO FSHR cells + EC20 FSH (Assay A)
# Condition set: CHO-FSHR-LUC cells, in presence of EC20 FSH, cAMP HTRF, 1 h 37° C.
Recorded EC50, one value per entry.
Reported endpoint: EC50

INSERT INTO assay_data (smiles_data, reported_endpoint, meas_value) VALUES
  ('COc1cc2c(cc1-c1c[nH]nc1C)-n1c(-c3ccsc3)nc(C(=O)N(C)C(C)(C)C)c1CC2', 'EC50', '< 100 nM'),
  ('COc1cc2c(cc1CC(C)C)-n1c(-c3cccs3)nc(C(=O)N3CCOCC34COC4)c1CC2', 'EC50', '< 100 nM'),
  ('COc1cc2c(cc1OC(C)C)-n1c(C3=CCCC3(C)C)nc(C(=O)N3CCOCC3(C)C)c1CC2', 'EC50', '< 100 nM'),
  ('COc1cc2c(cc1OC(C)C)-n1c(-c3ccccc3OC)nc(C(=O)N(C)C(C)(C)C)c1CC2', 'EC50', '1000 to 5000 nM');

---

# System under test: FSHR (Homo sapiens)
# Construct: expressed in transfected cells; host or cells: CHO cells, clone Cho-FSHR-LUC-1-1-43
# Test protocol: EC50 of cyclic AMP production in CHO FSHR cells + EC20 FSH (Assay A)
# Type: cell-based
# Condition set: CHO-FSHR-LUC cells, in presence of EC20 FSH, cAMP HTRF, 1 h 37° C.
# Procedure: EC50 of cyclic AMP production in CHO FSHR cells+EC20 FSH (Assay A) 2500 Cho-FSHR-LUC-1-1-43 cells were plated per well in 5 μl of phenol red free DMEM/F12+1% FBS. […] Cells were assayed by adding 100 μl of 2×EC20 FSH/IBMX in DMEM/F12+0.1% BSA) by Multidrop to 2 μl of test compound stamped in 384 well plates (compounds are diluted 1:50). […] The plates were read on Envision using the cAMP HTRF—low volume 384 well protocol. […]
pEC50: −log10 of the molar value.
pEC50 listing for selected molecules.
Reported endpoint: pEC50

INSERT INTO assay_data (smiles_data, reported_endpoint, meas_value) VALUES
  ('[2H]C([2H])([2H])N(C(=O)c1nc(-c2cccs2)n2c1CCc1cc(OC)c(CC(C)C)cc1-2)C1(C)COC1', 'pEC50', '> 7.00'),
  ('COc1cc2c(cc1OC(C)C)-n1c(-c3cc(C)nn3C)nc(C(=O)N3CCOCC3(C)C)c1CC2', 'pEC50', '6.00 to 7.00'),
  ('COc1cc2c(cc1OC(C)C)-n1c(-c3ccsc3)nc(C(=O)N3CCCN(C(=O)C4CCC4)CC3)c1CC2', 'pEC50', '> 7.00'),
  ('COc1cc2c(cc1CC(C)C)-n1c(-c3cccs3)nc(C(=O)NC3(C)COC3)c1CC2', 'pEC50', '6.00 to 7.00');

---

# System under test: FSHR (Homo sapiens, UniProt P23945)
# Test protocol: EC50 of cyclic AMP production in CHO FSHR cells + EC20 FSH (Assay A)
# Condition set: CHO-FSHR-LUC cells, in presence of EC20 FSH, cAMP HTRF, 1 h 37° C.
Entries and their EC50 values follow.
Reported endpoint: EC50

INSERT INTO results (smiles_data, system_under_test, meas_value) VALUES
  ('COc1cc2c(cc1OC(C)C)-n1c(-c3ccccc3Cl)nc(C(=O)N(C)C(C)(C)C)c1CC2', 'FSHR (Homo sapiens, UniProt P23945)', '100 to 1000 nM'),
  ('COc1cc2c(cc1OC(C)C)-n1c(-c3cc(Cl)ccc3OC(F)(F)F)nc(C(=O)N3CCOCC3(C)C)c1CC2', 'FSHR (Homo sapiens, UniProt P23945)', '1000 to 5000 nM'),
  ('COc1cc2c(cc1OC(C)C)-n1c(-c3ccnn3CC(C)C)nc(C(=O)N3CCOCC3(C)C)c1CC2', 'FSHR (Homo sapiens, UniProt P23945)', '1000 to 5000 nM'),
  ('COc1cc2c(cc1OC(C)C)-n1c(-c3cc(F)c(F)c(Cl)c3)nc(C(=O)N3CCOCC3(C)C)c1CC2', 'FSHR (Homo sapiens, UniProt P23945)', '100 to 1000 nM');
